# Subject of test: T1, ADAR1-dsRBD3 interface mutant (monomeric) (Homo sapiens, UniProt P55265 708-801, V747A;D748Q;W768V;C773S)
# T1 sequence: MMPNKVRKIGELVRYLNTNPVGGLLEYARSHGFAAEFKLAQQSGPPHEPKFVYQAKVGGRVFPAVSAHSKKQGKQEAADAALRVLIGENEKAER
# Method description: ITC; N = 3.60 ± 0.36; ITC: 25 mM Na-phosphate pH 7.0, 100 mM NaCl, 2 mM 2-mercaptoethanol, 25 °C; 2.25 uM dsRNA in cell, 80 uM protein in syringe
# Condition set: protein: recombinant; tags: N-terminal His6 (uncleaved); blunt
Measurement kind: Kd (nM)
All answers are understood in nM, so give the number only.

Give reported Kd value for 24 bp dsRNA duplex (dsRNA) RNA 1: GGGAUCAAUAUGCUAAGCGAUCCC RNA 2: GGGAUCGCUUAGCAUAUUGAUCCC
410
